Target: GABARAP (1-117), His8-TEV-GABARAP (human, UniProt O95166 1-117)
Sequence (O95166 whole entry): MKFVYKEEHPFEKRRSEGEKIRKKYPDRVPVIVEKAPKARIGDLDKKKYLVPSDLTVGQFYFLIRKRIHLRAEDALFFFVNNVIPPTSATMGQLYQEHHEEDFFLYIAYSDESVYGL
Assay: SPR
pKd: −log10 of the molar value.
Property Name: pKd

>  <Binder>
EKGEVEESEYVVITVRNEP [FNIP2 peptide 558-576, wild type (Short)]

>  <Property Name>
pKd

>  <Measured>
5.21

$$$$
>  <Binder>
GSKIITALEKGEVEESEYVVITVRNEP [FNIP2 peptide 550-576, wild type (Long)]

>  <Property Name>
pKd

>  <Measured>
7.54

$$$$
